assay: protein stability index of a GFP-peptide fusion (GPS, HEK-293T) (PSI 1-6); higher = more stable; settings: treatment: DMSO; c terminus: a fixed tail appended;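 further: 24-mer peptide tiles fused after GFP, lentivirally expressed, FACS-sorted into six equal bins by GFP/DsRed ratio, decoded by Illumina sequencing, PSI is the read-weighted mean bin number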
Assign class by protein stability index: not lower than 3 means yes (1); lower than 3 means no (0).

Reference set, count: 6
                        query_sequence  qualitative_label
0  SDQETLRIHERLVAGSLAGAIAQS [SLC25A25]            yes (1)
1     FNGDFVDRGKDSVEILMILFAFML [PPEF2]             no (0)
2      GEQEHSQQKEEEEEMAVVPQGLFR [CHGA]            yes (1)
3    ATAVGGGFFLLQLANHTGYIKVDW [FUNDC2]            yes (1)
4     DMAGDWHWALRVTPGLGVVAVLLL [SPNS1]             no (0)
5     PTVGIGGDRLQFNQLSQAELDELA [EFHC1]            yes (1)

Then this sequence:
Input: Please check the record DQPMGGWEMIRKIGDTSVSYKYTS [LMNB1] and state if its protein stability index is at or above 3.
Output: yes (1)

* * *

So I've got a bunch of sequences here, and I need their protein stability index values.
assay: protein stability index of a GFP-peptide fusion (GPS, HEK-293T) (PSI 1-6); higher = more stable; conditions: treatment: MLN4924 1 uM, 8 h; c terminus: a fixed tail appended
Answers are plain numbers.

                     query_sequence       measured_parameter  result
0  GNQLISNNIKFKKSSILTRAGEQR [CLCN6]  protein stability index    4.06

Each sequence below has a recorded value; state its protein stability index.
1. MALRGPAGLGPGSRRPLDEAVAGA [DENND6A]
2. VNPTGNLPMWSNQTWNNSTWSNQT [NANOGP8]
3. IYGPGNLSTNNNTLRDHFKGISSH [SLC2A12]
4. QVQSLITNVESQLAEIRSDLERQN [KRT33B]
5. ANTTPSGKSVSSSSSVETGPSVSE [SPATS1]
6. QPMCEEHEEERINIYCLNCEVPTC [TRIM55]

Output:
1. 4.53
2. 2.98
3. 3
4. 3.91
5. 5.31
6. 4.31

Each sequence below has a recorded value; state its protein stability index.
1. RQRSSLAKINIVYQELNYRSVEEA [SCNN1D]
2. RGSIQSRYISMSVWTSPRRLVELA [PRAME]

Output:
1. 3.44
2. 2.71

Each sequence below has a recorded value; state its protein stability index.
1. SRRQEKSAGDADPENGEIKPASKP [ELOA2]
2. FQCNQCGASFTQKGNLLRHIKLHS [IKZF1]
3. CGKAFYKKYRLTEHERAHRGEKPH [ZNF649]
4. SGSSYCSFPPSLSSSSSSSPTSGS [LURAP1L]
5. LSEAYRVLSREQSRRSYDDQLRSG [DNAJC4]
6. GVAGGLNRNQGLNRLMLAVRDMMA [TCF25]

Output:
1: 5.69; 2: 4.4; 3: 3.18; 4: 4.42; 5: 3.03; 6: 3.02

Each sequence below has a recorded value; state its protein stability index.
1. YAMKYMNKQKCVERNEVRNVFKEL [STK32A]
2. KVLHEDKQTREQLHSISDSVLFLQ [TRIM29]
3. RSGIQFGSWGSFQLPGLLNFGEFK [CLCN6]
4. TMQSMFAKNFHVKAVMKTSVLLSW [PTPRD]

Output:
1: 2.24; 2: 3.58; 3: 2.4; 4: 2.94

* * *

assay: protein stability index of a GFP-peptide fusion (GPS, HEK-293T) (PSI 1-6); higher = more stable; details: treatment: MLN4924 1 uM, 8 h; c terminus: a fixed tail appended
Each record's class is read off its protein stability index using these ranges: LOW: < 3; MEDIUM: ≥ 3 and < 4; HIGH: ≥ 4

Reference set, count: 3
                        query_sequence  qualitative_label
0    KNFSNNSNLIRHQRIHAAERLCMG [ZNF263]                LOW
1     PTVGIGGDRLQFNQLSQAELDELA [EFHC1]               HIGH
2  TDRDEGANGEVTYSFRKLPDTQLL [PCDHGA10]               HIGH

Input: Form: Item = NALVTKLLLDCGAEVNAVDNEGNS [FEM1B] ; Class = ?
Output: MEDIUM

Input: Form: Item = TTYDRRSSQERKFMEERELLGQDE [RSPH3] ; Class = ?
Output: HIGH

Input: Form: Item = KSKWDEEWDKNKSAFPFSDKLGEL [CLINT1] ; Class = ?
Output: MEDIUM

Input: Form: Item = AELAETIVYARVLALHPEAPGLYN [CCDC3] ; Class = ?
Output: LOW

* * *

test: protein stability index of a GFP-peptide fusion (GPS, HEK-293T) (PSI 1-6); higher = more stable; details: treatment: MLN4924 1 uM, 8 h; c terminus: a fixed tail appended
Each record's class is read off its protein stability index using these ranges: low = under 3, intermediate = from 3 up to 4, high = 4 and over

Reference set, count: 4
                      query_sequence  qualitative_label
0   EREVRAKNGRVDSEDRRSRHCPYL [USP39]               high
1    PAPEAAHTTGPTGSAPNSPMALLT [TFE3]               high
2  DLDACALVRGHRRRLLRRLSPSRG [ZSWIM9]               high
3   RLRDAGFRVTLWVHPFVNYNSSRF [MYORG]                low

Input: Form: Item = RPSSPRPQKASPNGSISSAGNSSR [BTBD10] ; Class = ?
Output: high

Input: Form: Item = VGYQSQNISCFFRLVDRDSVWGYD [MYORG] ; Class = ?
Output: low

* * *

experiment: protein stability index of a GFP-peptide fusion (GPS, HEK-293T) (PSI 1-6); higher = more stable; conditions: treatment: DMSO; c terminus: a fixed tail appended
Assign class by protein stability index: not lower than 3 means fulfilled; lower than 3 means not fulfilled.

Input: Please check the record APPPRDYTYRDYGHSSSRDDYPSR [RBMX] and state if its protein stability index is at or above 3.
Output: fulfilled

Input: Please check the record RAPEVLLQSTYATPVDMWSVGCIF [CDK4] and state if its protein stability index is at or above 3.
Output: not fulfilled

Input: Please check the record QKAVKSCLVCQASFCELHLKPHLE [TRIM29] and state if its protein stability index is at or above 3.
Output: fulfilled

Input: Please check the record WAMRRSYEAIAKHNQVEAAWLEGR [TRIM35] and state if its protein stability index is at or above 3.
Output: not fulfilled

Input: Please check the record RKYFADLAMNYKHGDPIPKVEFTE [TPH1] and state if its protein stability index is at or above 3.
Output: fulfilled

Input: Please check the record YSHSSTRDGRRDRYSSDTTPLLNG [GOSR1] and state if its protein stability index is at or above 3.
Output: fulfilled

Input: Please check the record QYLMASDMAGKIKLWDLRTTKCVR [DCAF4] and state if its protein stability index is at or above 3.
Output: not fulfilled

Input: Please check the record RLRDAGFRVTLWVHPFVNYNSSRF [MYORG] and state if its protein stability index is at or above 3.
Output: not fulfilled

Input: Please check the record VLQDGCVFEKAGVSISVVHGNLSE [CPOX] and state if its protein stability index is at or above 3.
Output: fulfilled

Input: Please check the record IRCRHPPPGSHLLYAKMIQKLADL [VDR] and state if its protein stability index is at or above 3.
Output: not fulfilled

Input: Please check the record FSEIISSISDVKFSHSGRYIMTRD [PPP2R2B] and state if its protein stability index is at or above 3.
Output: not fulfilled

Input: Please check the record CHGMSSQLVRYSADGLLQLGPLGS [GALNT9] and state if its protein stability index is at or above 3.
Output: not fulfilled

Input: Please check the record YWRYDEYKRSMDPGYPKMIAHDFP [MMP1] and state if its protein stability index is at or above 3.
Output: not fulfilled

Input: Please check the record NGNSYICKCSEGFVLAEDGRRCKK [MATN2] and state if its protein stability index is at or above 3.
Output: fulfilled

Input: Please check the record PVLLLQITVGLVFLCLQYRLRGKL [MOG] and state if its protein stability index is at or above 3.
Output: fulfilled

Input: Please check the record RFYYQALSVAPQIGMPFNQLGTLA [SMG5] and state if its protein stability index is at or above 3.
Output: not fulfilled

Input: Please check the record PLLSASVTGHTNIVDFLTHHAQTS [FEM1C] and state if its protein stability index is at or above 3.
Output: fulfilled

Input: Please check the record LRERVKKVKRSLRQARKKGRHLEL [CCDC3] and state if its protein stability index is at or above 3.
Output: fulfilled
